Each recorded value in this set is attributed to patent US20210388087A1.

List of fold change of affinity values.
- test system: Human CD137 ECD (human)
- Sequence (chain, as listed by the source limits assumed): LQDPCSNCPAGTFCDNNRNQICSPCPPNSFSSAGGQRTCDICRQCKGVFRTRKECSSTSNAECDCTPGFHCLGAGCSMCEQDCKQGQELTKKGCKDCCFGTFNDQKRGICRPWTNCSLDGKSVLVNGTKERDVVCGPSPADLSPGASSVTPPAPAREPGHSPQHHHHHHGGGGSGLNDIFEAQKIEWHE
- measurement description: single mutant vs template dBBDu183H
Give just the numeric value; fold need not be written.

H183/L072 VH M34A (antibody, name in Kabat numbering, V domains shown) VH: QVQLVESGGGLVQPGRSLRLSCAASGFTFSNAWAHWVRQAPGKGLEWVAQIKDKGNAYAAYYAPSVKGRFTISRDDSKNSIYLQMNSLKTEDTAVYYCHYVHYASASTVLPAFGVDAWGQGTTVTVSS VL: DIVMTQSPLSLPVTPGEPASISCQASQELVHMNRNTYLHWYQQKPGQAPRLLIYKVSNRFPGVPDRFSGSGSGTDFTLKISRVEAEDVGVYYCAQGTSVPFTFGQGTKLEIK | 0
H183/L072 VH D52aK (antibody, name in Kabat numbering, V domains shown) VH: QVQLVESGGGLVQPGRSLRLSCAASGFTFSNAWMHWVRQAPGKGLEWVAQIKKKGNAYAAYYAPSVKGRFTISRDDSKNSIYLQMNSLKTEDTAVYYCHYVHYASASTVLPAFGVDAWGQGTTVTVSS VL: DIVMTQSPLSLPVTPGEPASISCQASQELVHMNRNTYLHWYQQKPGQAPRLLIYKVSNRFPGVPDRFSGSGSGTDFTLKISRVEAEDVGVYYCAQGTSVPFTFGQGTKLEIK | 0

Let's switch to this binder now.
Req: // returns reported fold change of affinity for input H183/L072 VH M34W (antibody, name in Kabat numbering, V domains shown) VH: QVQLVESGGGLVQPGRSLRLSCAASGFTFSNAWWHWVRQAPGKGLEWVAQIKDKGNAYAAYYAPSVKGRFTISRDDSKNSIYLQMNSLKTEDTAVYYCHYVHYASASTVLPAFGVDAWGQGTTVTVSS VL: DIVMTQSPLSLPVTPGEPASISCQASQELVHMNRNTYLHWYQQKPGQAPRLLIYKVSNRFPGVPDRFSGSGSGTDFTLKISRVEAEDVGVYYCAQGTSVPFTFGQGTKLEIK
Resp: 0
